- Tested on: MDAMB157
- TEST_PROTOCOL: -log10 GI50 (growth inhibition 50%) (-log10(M)); higher = more potent growth inhibition
VALUE_TYPE: -log10 GI50

> print(dat)
                              sample.smiles    system  reported.measurement
1  COc1cc2ncnc(Nc3ccc(F)c(Cl)c3)c2cc1OCCCN1CCOCC1  MDAMB157                  4.92
2  COc1ccc(-c2cc3c(C)nc(N)nc3n([C@H]3CC[C@H](OCCO)CC3)c2=O)cn1  MDAMB157                  6.13
3  CCNCCCCNCCCCNCCCCNCCCCNC/C=C/CNCCCCNCCCCNCCCCNCCCCNCC  MDAMB157                  6.97

###

- Tested on: HCC1428
- TEST_PROTOCOL: -log10 GI50 (growth inhibition 50%) (-log10(M)); higher = more potent growth inhibition
VALUE_TYPE: -log10 GI50

> print(dat)
                              sample.smiles   value.type  reported.measurement
1  Cc1[nH]c2ccccc2c1CCNCc1ccc(/C=C/C(=O)NO)cc1  -log10 GI50                  6.98
2  COc1cc(Nc2c(C#N)cnc3cc(OCCCN4CCN(C)CC4)c(OC)cc23)c(Cl)cc1Cl  -log10 GI50                  5.43
3  C[C@]12O[C@H](C[C@]1(O)CO)n1c3ccccc3c3c4c(c5c6ccccc6n2c5c31)CNC4=O  -log10 GI50                   6.3
4  O=C1NC(=O)/C(=C/c2ccc(-c3ccc(F)cc3O)o2)S1  -log10 GI50                  5.34

###

- Test system: MDAMB175VII
- TEST_PROTOCOL: -log10 GI50 (growth inhibition 50%) (-log10(M)); higher = more potent growth inhibition
VALUE_TYPE: -log10 GI50

These solved cases illustrate the format of a correct answer.
MOLECULE	SYSTEM	-log10 GI50
C/C(=C\c1csc(C)n1)[C@@H]1C[C@@H]2O[C@]2(C)CCC[C@H](C)[C@H](O)[C@@H](C)C(=O)C(C)(C)[C@@H](O)CC(=O)N1 [Ixabepilone]	MDAMB175VII	7.03
Cc1[nH]c2ccccc2c1CCNCc1ccc(/C=C/C(=O)NO)cc1	MDAMB175VII	6.41
Cn1cnc2c(F)c(Nc3ccc(Br)cc3Cl)c(C(=O)NOCCO)cc21	MDAMB175VII	5.59
CCCCCN(C)CCC(O)(P(=O)(O)O)P(=O)(O)O [Ibandronate sodium]	MDAMB175VII	4.47

I: CCN(CC)CCNC(=O)c1c(C)[nH]c(/C=C2\C(=O)Nc3ccc(F)cc32)c1C [Sunitinib malate]
II: Nc1ccn([C@@H]2O[C@H](CO)[C@@H](O)C2(F)F)c(=O)n1
### Prompt Exercise: compare I and II ; which one has the greater -log10 GI50? Indicate which entry you chose by stating its label.
### Response II
(II: 8.12, I: 5.18)

I: Cc1c(O)cccc1C(=O)N[C@@H](CSc1ccccc1)[C@H](O)CN1C[C@H]2CCCC[C@H]2C[C@H]1C(=O)NC(C)(C)C
II: CCC1=C[C@@H]2CN(C1)Cc1c([nH]c3ccccc13)[C@@](C(=O)OC)(c1cc3c(cc1OC)N(C)[C@H]1[C@@](O)(C(=O)OC)[C@H](OC(C)=O)[C@]4(CC)C=CCN5CC[C@]31[C@@H]54)C2
### Prompt Quick one: lower -log10 GI50, I or II ? Give the chosen item's label as your response.
### Response I

###

- System: MDAMB175VII
- TEST_PROTOCOL: -log10 GI50 (growth inhibition 50%) (-log10(M)); higher = more potent growth inhibition
VALUE_TYPE: -log10 GI50

COMPOUND	REPORTED_MEASUREMENT
CC(=O)O[C@@]12CO[C@@H]1C[C@H](O)[C@@]1(C)C(=O)[C@H](O)C3=C(C)[C@@H](OC(=O)[C@H](O)[C@@H](NC(=O)OC(C)(C)C)c4ccccc4)C[C@@](O)([C@@H](OC(=O)c4ccccc4)[C@H]21)C3(C)C [Docetaxel]	7.8
CCC[C@H](N[C@H]1CCc2cc(F)cc(F)c2C1)C(=O)Nc1cn(C(C)(C)CNCC(C)(C)C)cn1	5.24
CS(=O)(=O)CCNCc1ccc(-c2ccc3ncnc(Nc4ccc(OCc5cccc(F)c5)c(Cl)c4)c3c2)o1 [Lapatinib]	6.04

1: C=CCNC1=C2C[C@@H](C)C[C@H](OC)[C@H](O)[C@@H](C)/C=C(\C)[C@H](OC(N)=O)[C@@H](OC)/C=C\C=C(/C)C(=O)NC(=CC1=O)C2=O [17-AAG]
2: O=c1cc(-c2ccccc2)oc2cc(O)c(O)c(O)c12 [Baicalein]
### Prompt Lab notebook, comparison: 1 versus 2 , higher -log10 GI50 goes to which? # answer = label of selected item
### Response 1

###

- Tested on: SUM159PT
- TEST_PROTOCOL: -log10 GI50 (growth inhibition 50%) (-log10(M)); higher = more potent growth inhibition
Catalogue of molecules with associated -log10 GI50
Just the number, please, no unit attached.

Here are 3 molecules together with their reported answers.
> print(dat)
                              sample.smiles  reported.measurement
1  CSCC[C@H](NC(=O)[C@H](Cc1ccccc1)NC[C@@H](NC[C@@H](N)CS)C(C)C)C(=O)O                     5
2  CN(C)C/C=C/C(=O)Nc1cc2c(Nc3ccc(F)c(Cl)c3)ncnc2cc1O[C@H]1CCOC1                  5.59
3          COc1cccc(-c2cc(=O)c3ccccc3o2)c1N                  4.03

### Prompt Need -log10 GI50, item CC(C)C[C@H](NC(=O)[C@H](Cc1ccccc1)NC(=O)c1cnccn1)B(O)O
### Response 8.14

###

- Test system: SKBR3
- TEST_PROTOCOL: -log10 GI50 (growth inhibition 50%) (-log10(M)); higher = more potent growth inhibition
VALUE_TYPE: -log10 GI50

Record excerpt, results attached:
> print(dat)
                                   compound  system  reported.measurement
1           CCCC(CCC)C(=O)O [Valproic acid]   SKBR3                  3.04
2  CC(/C=C/C(=O)NO)=C\[C@@H](C)C(=O)c1ccc(N(C)C)cc1 [Trichostatin A]   SKBR3                  5.21
3  CC(C)C[C@@H](C=O)NC(=O)[C@H](CC(C)C)NC(=O)[C@H](CC(C)C)NC(=O)OCc1ccccc1 [MG-132]   SKBR3                  6.58
4  O=C(O)C(=O)O.[NH-][C@@H]1CCCC[C@H]1[NH-].[Pt+2] [Oxaliplatin]   SKBR3                   5.7
5  C[C@@H](Oc1cc(-c2cnn(C3CCNCC3)c2)cnc1N)c1c(Cl)ccc(F)c1Cl   SKBR3                  5.14

P: CCCCCN(C)CCC(O)(P(=O)(O)O)P(=O)(O)O [Ibandronate sodium]
Q: COc1ccc(-c2cc3c(C)nc(N)nc3n([C@H]3CC[C@H](OCCO)CC3)c2=O)cn1
### Prompt Input pair: P , Q . Output: entry with lower -log10 GI50. API: response body contains the label of the selected item.
### Response P
(P: 4.05, Q: 7.33)

1: Cc1c(O)cccc1C(=O)N[C@@H](CSc1ccccc1)[C@H](O)CN1C[C@H]2CCCC[C@H]2C[C@H]1C(=O)NC(C)(C)C [Nelfinavir]
2: C/C(=C\c1csc(C)n1)[C@@H]1C[C@@H]2O[C@]2(C)CCC[C@H](C)[C@H](O)[C@@H](C)C(=O)C(C)(C)[C@@H](O)CC(=O)N1 [Ixabepilone]
3: CCNCCCNC/C=C\CNCCCNCC
### Prompt Order the records, beginning with the lowest -log10 GI50 and ending with the highest. Give your ranking as a list of the labels in the requested order.
### Response 3, 1, 2
(3: 3.51, 1: 5.09, 2: 7.99)

I: O=C(c1ccc(Nc2nccc(-c3cc4ccccc4s3)n2)cc1)N1CCC(N2CCCC2)CC1 [IKK 16]
II: COc1ncc(-c2ccc3nccc(-c4ccnnc4)c3c2)cc1NS(=O)(=O)c1ccc(F)cc1F
### Prompt Of the two listed items, which has the higher -log10 GI50? First: I Second: II Write down the label of the entry you select.
### Response II

a: CC[C@H](CO)Nc1nc(NCc2ccccc2O)c2ncn(C(C)C)c2n1 [Olomoucine II]
b: C=CCNC1=C2C[C@@H](C)C[C@H](OC)[C@H](O)[C@@H](C)/C=C(\C)[C@H](OC(N)=O)[C@@H](OC)/C=C\C=C(/C)C(=O)NC(=CC1=O)C2=O [17-AAG]
### Prompt I'd appreciate it if you could identify which of a and b has the greater -log10 GI50. Refer to your chosen item by its label in the answer.
### Response b

A: Nc1nc2[nH]cc(CCc3ccc(C(=O)N[C@@H](CCC(=O)O)C(=O)O)cc3)c2c(=O)[nH]1 [Pemetrexed]
B: CC(C)C[C@H](NC(=O)[C@H](Cc1ccccc1)NC(=O)c1cnccn1)B(O)O [Bortezomib]
### Prompt Which of these two has the smaller recorded -log10 GI50: A or B ? Your answer should be the label attached to the chosen record.
### Response A
(A: 5.02, B: 7.88)

A: O=C(CCCCCCC(=O)Nc1ccccc1)NO [Vorinostat]
B: NS(=O)(=O)OC[C@@H]1C[C@@H](n2ccc3c(N[C@H]4CCc5ccccc54)ncnc32)C[C@@H]1O [MLN4924]
### Prompt Identify the item whose -log10 GI50 is the smaller number: A or B I would appreciate it if you answered with the label of your choice.
### Response A
(A: 4.32, B: 6.82)
